target: recombinant human latent myostatin (human, UniProt O14793 24-375, biotinylated (in the Octet pH assay only)); assay: cell-based or functional assay
# reported mTLL2 IC50; entries follow
measurement.kind: mTLL2 IC50 (nM)

binder | readout.value
Ab112 (antibody, human IgG4 S228P, kappa, V domains shown) VH: QVQLVQSGAEVKKPGASVKVSCKVSGGTFGIYAIHWVRQAPGKGLEWMGGTIPVFGTAIYAQKFQGRVTMTEDTSTDTAYMELSSLKSEDTAVYYCASLTGIAAAGTHPARGGMDVWGQGTTVTVSS VL: DIQMTQSPSSVSASVGDRVTITCRASPSISSYLAWYQQKPGKAPKLLIYAASRLQSGVPSRFSGSGSGTDFTLTISSLQPEDFANYYCQEYLSFPLTFGGGTKVEIKR | 9.22
Ab141 (antibody, human IgG4 S228P, kappa, V domains shown) VH: EVQLVESGGGLVQPGGSLRLSCAASGFTFSSYGMSWVRQAPGKGLELVASFTGSGGAYYPDSVKGRFTISRDNAKNSLYLQMNSLRAEDTAVYYCARDLLIRFLEWSHYYGMDVWGQGTTVTVSS VL: DIVMTQSPLSLPVTPGEPASISCRSSQSLLHSSGHNFLHWYLQKPGQSPQLLIYEVSNRVSGVPDRFSGSGSGTDFTLKISRVEAEDVGVYYCMQQTQYPGTFGGGTKVEIKR | 0.139
Ab105 (antibody, human IgG4 S228P, kappa, V domains shown) VH: EVQLVESGGGLVQPGGSLRLSCAASGSAFSSYGMSWVRQAPGKGLELVASIGGTGATYYPDSVKGRFTISRDNAKNSLYLQMNSLRAEDTAVYYCARDLLVRFLEWGHYYGMDVWGQGTTVTVSS VL: DIVMTQSPLSLPVTPGEPASISCRSSQSLLHSSGYNFLHWYLQKPGQSPQLLIYAASSRAPGIPDRFSGSGSGTDFTLKISRVEAEDVGVYYCMHGGQGPTFGGGTKVEIKR | 0.25
Ab131 (antibody, human IgG4 S228P, kappa, V domains shown) VH: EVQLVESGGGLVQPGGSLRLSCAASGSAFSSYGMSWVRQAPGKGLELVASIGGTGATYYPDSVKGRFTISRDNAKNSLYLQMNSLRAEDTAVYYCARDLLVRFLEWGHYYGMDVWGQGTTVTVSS VL: DIVMTQSPLSLPVTPGEPASISCRSSQSLLHSSGYNFLHWYLQKPGQSPQLLIYAASSRAPGIPDRFSGSGSGTDFTLKISRVEAEDVGVYYCQHGGQGPTFGGGTKVEIKR | 0.208

Data origin: patent US20260209325A1
